Data origin: patent US5240925A

Tested on: Pseudoperonospora cubensis
Assay: whole plant or invertebrate
Format: in vivo
Details: in Cucumis sativus, 168 h, read-out: percent disease control, CDM
value.kind: pest or weed control at 300 g/ha (%)
Answers are plain numbers, in %.

Solved entries (count: 4):
Task item: Hi! What's the reported pest or weed control at 300 g/ha for N#CC(Cc1cccs1)(Cn1cncn1)c1ccc(Cl)cc1 (centres unmarked) [Example 13] on Pseudoperonospora cubensis?
Reply: 0

Task item: And what about the molecule CC1CN(CCCC(C#N)(Cn2cncn2)c2ccc(Cl)cc2)CC(C)O1 (centres unmarked) [Example 3] ?
Reply: 0

Task item: And what about the molecule CN1CCCC(CC(C#N)(Cn2cncn2)c2ccc(Cl)cc2Cl)C1 (centres unmarked) [Example 11] ?
Reply: 50

Task item: And what about the molecule CC1CN(CCCCC(C#N)(Cn2cncn2)c2ccc(Cl)cc2)CC(C)O1 (centres unmarked) [Example 5] ?
Reply: 0

Could you now consider this next molecule?
Task item: Hi! What's the reported pest or weed control at 300 g/ha for N#CC(CCN1CCOCC1)(Cn1cncn1)c1ccc(Cl)cc1 (centres unmarked) [Example 2] on Pseudoperonospora cubensis?
Reply: 0

###

System: Pseudoperonospora cubensis
Assay: whole plant or invertebrate
Type: in vivo
Settings: in Cucumis sativus, 168 h, read-out: percent disease control, CDM
For each record, write down the corresponding pest or weed control at 300 g/ha.
Numbers only, in %.

Solved entries (count: 3):
Task item: Request the reported pest or weed control at 300 g/ha associated with CC1CN(CCCCCCCCCCCC(C#N)(Cn2cncn2)c2ccc(Cl)cc2)CC(C)O1 (stereo not shown) [Example 6]
Reply: 0

Task item: And what about the compound CC1CN(CCC(C#N)(Cn2cncn2)c2ccc(Cl)cc2)CC(C)O1 (stereo not shown) [Example 4] ?
Reply: 0

Task item: And what about the compound COc1ccccc1C(C#N)(CC1CCCCO1)Cn1cncn1 (stereo not shown) [Example 14] ?
Reply: 0

Next:
Task item: Request the reported pest or weed control at 300 g/ha associated with N#CC(CCc1ccccn1)(Cn1cncn1)c1ccccc1 (stereo not shown) [Example 15]
Reply: 0

###

Tested on: Puccinia graminis (f. sp. tritici Race 15B-2)
Test: whole plant or invertebrate
Type: in vivo
Details: 240 h, read-out: percent disease control, WSR
value.kind: pest or weed control at 300 g/ha (%)
One number for each entry, in %.

Solved entries (count: 4):
Task item: Request the reported pest or weed control at 300 g/ha associated with CC1CN(CCCCC(C#N)(Cn2cncn2)c2ccc(Cl)cc2)CC(C)O1 (centres unmarked) [Example 5]
Reply: 80

Task item: And what about the compound CC1CN(CCC(C#N)(Cn2cncn2)c2ccc(Cl)cc2)CC(C)O1 (centres unmarked) [Example 4] ?
Reply: 100

Task item: And what about the compound N#CC(CCN1CCOCC1)(Cn1cncn1)c1ccc(Cl)cc1 (centres unmarked) [Example 2] ?
Reply: 0

Task item: And what about the compound CC1CN(CCCC(C#N)(Cn2cncn2)c2ccc(Cl)cc2)CC(C)O1 (centres unmarked) [Example 3] ?
Reply: 50

Next:
Task item: Request the reported pest or weed control at 300 g/ha associated with CC1CN(CCCCCCCCCCCC(C#N)(Cn2cncn2)c2ccc(Cl)cc2)CC(C)O1 (centres unmarked) [Example 6]
Reply: 80

###

System: Puccinia recondita (f. sp. tritici Races PKB and PLD)
Test: whole plant or invertebrate
Assay type: in vivo
Conditions: 240 h, read-out: percent disease control, WLR
value.kind: pest or weed control at 300 g/ha (%)
Answers are plain numbers, in %.

Task item: Request the reported pest or weed control at 300 g/ha associated with COc1ccccc1C(C#N)(CC1CCCCO1)Cn1cncn1 (stereo not shown)
Reply: 0

Task item: And what about the compound N#CC(CCCN1CCCCC1)(Cn1cncn1)c1ccc(Cl)cc1Cl (stereo not shown) ?
Reply: 25

Task item: And what about the compound N#CC(CCc1ccccn1)(Cn1cncn1)c1ccccc1 (stereo not shown) ?
Reply: 0

Could you now consider this next compound?
Task item: Request the reported pest or weed control at 300 g/ha associated with CN1CCCC(CC(C#N)(Cn2cncn2)c2ccc(Cl)cc2Cl)C1 (stereo not shown)
Reply: 25

###

For each record, write down the corresponding pest or weed control at 300 g/ha.
Tested on: Erysiphe graminis (f. sp. tritici)
Test: whole plant or invertebrate
Type: in vivo
Settings: Blumeria graminis, 192 h; read-out: percent disease control, WPM
One number for each entry, in %.

Solved entries (count: 3):
Task item: Hi! What's the reported pest or weed control at 300 g/ha for CN1CCCC(CC(C#N)(Cn2cncn2)c2ccc(Cl)cc2Cl)C1 (stereo not drawn) [Example 11] on Erysiphe graminis (f. sp. tritici)?
Reply: 95

Task item: And what about the compound COc1ccccc1C(C#N)(CC1CCCCO1)Cn1cncn1 (stereo not drawn) [Example 14] ?
Reply: 99

Task item: And what about the compound CC1CN(CCCCC(C#N)(Cn2cncn2)c2ccc(Cl)cc2)CC(C)O1 (stereo not drawn) [Example 5] ?
Reply: 0

Hey, quick one: what's pest or weed control at 300 g/ha for each of these?
1. N#CC(CCc1ccccn1)(Cn1cncn1)c1ccccc1 (stereo not drawn) [Example 15]
2. N#CC(CCN1CCOCC1)(Cn1cncn1)c1ccc(Cl)cc1 (stereo not drawn) [Example 2]
3. CC1CN(CCCC(C#N)(Cn2cncn2)c2ccc(Cl)cc2)CC(C)O1 (stereo not drawn) [Example 3]
4. CC1CN(CCCCCCCCCCCC(C#N)(Cn2cncn2)c2ccc(Cl)cc2)CC(C)O1 (stereo not drawn) [Example 6]

Reply:
1. 85
2. 50
3. 0
4. 0

Hey, quick one: what's pest or weed control at 300 g/ha for each of these?
1. N#CC(CCCN1CCCCC1)(Cn1cncn1)c1ccc(Cl)cc1Cl (stereo not drawn) [Example 10]
2. CC1CN(CCC(C#N)(Cn2cncn2)c2ccc(Cl)cc2)CC(C)O1 (stereo not drawn) [Example 4]

Reply:
1: 75; 2: 0
